target: D(2) dopamine receptor (Homo sapiens); assay: In vitro binding affinity at human Dopamine receptor D2 (long) by [3H]spiroperidol displacement.
Sequence (P14416 whole entry): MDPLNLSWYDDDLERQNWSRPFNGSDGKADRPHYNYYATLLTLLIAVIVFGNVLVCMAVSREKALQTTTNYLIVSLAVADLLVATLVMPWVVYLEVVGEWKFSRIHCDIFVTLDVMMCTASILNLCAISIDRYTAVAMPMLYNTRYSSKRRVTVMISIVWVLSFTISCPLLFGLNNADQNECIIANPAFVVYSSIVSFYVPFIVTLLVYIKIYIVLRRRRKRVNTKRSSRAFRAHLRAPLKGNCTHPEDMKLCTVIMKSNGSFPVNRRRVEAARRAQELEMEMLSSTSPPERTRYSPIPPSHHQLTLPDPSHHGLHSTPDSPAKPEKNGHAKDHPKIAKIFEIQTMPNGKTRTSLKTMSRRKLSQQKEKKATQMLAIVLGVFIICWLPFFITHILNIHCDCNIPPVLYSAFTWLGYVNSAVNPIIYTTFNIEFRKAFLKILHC

{"columns": ["structure_notation", "Ki"],
 "data": [
  ["COc1cccc(C(=O)CCCCCN2CCN(c3ccc(Cl)cc3)CC2)c1", "> 850 nM"],
  ["COc1cccc(C(=O)CCCCN2CCN(c3ccc(Cl)cc3)CC2)c1", "> 850 nM"],
  ["COc1cccc(C(=O)N(C)CCN2CCN(c3ccc(Cl)cc3)CC2)c1", "> 850 nM"]
]}

====

Molecular target: 5-hydroxytryptamine receptor 1A (Rattus norvegicus)
Sequence (P19327 whole entry): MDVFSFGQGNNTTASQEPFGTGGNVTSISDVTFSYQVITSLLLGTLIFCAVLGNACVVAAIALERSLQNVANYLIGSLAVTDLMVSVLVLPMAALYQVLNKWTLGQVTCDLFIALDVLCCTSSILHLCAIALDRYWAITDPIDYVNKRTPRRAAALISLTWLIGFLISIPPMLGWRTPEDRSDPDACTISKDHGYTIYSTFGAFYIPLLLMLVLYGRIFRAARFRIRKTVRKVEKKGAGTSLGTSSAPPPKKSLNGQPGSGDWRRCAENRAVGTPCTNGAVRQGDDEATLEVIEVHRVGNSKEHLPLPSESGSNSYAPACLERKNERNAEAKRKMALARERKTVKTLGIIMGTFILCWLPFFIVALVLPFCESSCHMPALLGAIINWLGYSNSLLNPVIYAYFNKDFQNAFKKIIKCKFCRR
pKi: −log10 of the molar value.
reported_metric: pKi

{"columns": ["molecule", "val"],
 "data": [
  ["COc1ccc2c(c1)C(NCCN1CCN(c3ccc(Cl)cc3)CC1)CCC2 (stereo not drawn)", "< 6.07"],
  ["COc1cccc(C(=O)N(C)CCN2CCN(c3ccc(Cl)cc3)CC2)c1", "< 6.07"],
  ["COc1cccc(CNCCN2CCN(c3ccc(Cl)cc3)CC2)c1", "< 6.07"]
]}
